Molecular target: CDK2/cyclin A2 (Homo sapiens, UniProt P24941)
Experiment: biochemical
readout: IC50 (nM)
Number in nM, nothing else.

Some molecules with known IC50 results, for comparison:
[
  {
    "molecule": "O=C(CNc1ccc(F)cc1)n1ncc2c1ncn1[nH]c(=S)nc21 [Compound 7]",
    "IC50 [nM]": 274
  },
  {
    "molecule": "CC(=O)OCC(CSc1nc2c3cnn(C(=O)CNc4ccc(F)cc4)c3ncn2n1)OC(C)=O (stereo not shown) [Compound 11]",
    "IC50 [nM]": 89
  },
  {
    "molecule": "COC(CSc1nc2c3cnn(C(=O)CNc4ccc(F)cc4)c3ncn2n1)OC [Compound 9]",
    "IC50 [nM]": 881
  },
  {
    "molecule": "N#CCSc1nc2c3cnn(C(=O)CNc4ccc(F)cc4)c3ncn2n1 [Compound 8]",
    "IC50 [nM]": 1060
  }
]

Asked: Request: IC50, test system CDK2/cyclin A2 (Homo sapiens, UniProt P24941), entry N=c1c2cnn(C(=O)CNc3ccc(F)cc3)c2ncn1N [Compound 4]
Given back: 1340

Asked: Then what about the molecule N=c1c2cnn(C(=O)CNc3ccc(F)cc3)c2ncn1N[C@@H]1O[C@H](CO)[C@@H](O)[C@H](O)[C@H]1O [Compound 5] ?
Given back: 2050

Asked: Then what about the molecule O=C(CNc1ccc(F)cc1)n1ncc2c1ncn1nc(SCC(O)CO)nc21 (stereo not shown) [Compound 10] ?
Given back: 506

Asked: Then what about the molecule N=c1c2cnn(C(=O)CNc3ccc(F)cc3)c2ncn1N[C@@H]1OC[C@@H](O)[C@H](O)[C@H]1O [Compound 6] ?
Given back: 559

Asked: Then what about the molecule CC(=O)OCCSc1nc2c3cnn(C(=O)CNc4ccc(F)cc4)c3ncn2n1 [Compound 13] ?
Given back: 130

Asked: Then what about the molecule O=C(CNc1ccc(F)cc1)n1ncc2c1ncn1nc(SCCO)nc21 [Compound 12] ?
Given back: 961
